Source of measurements: patent US7868026B2

- TARGET_OR_SYSTEM: CYP3A4 (Homo sapiens)
- ASSAY_PROTOCOL: Determination of compound Kiapp against recombinant CYP3A4 enzyme (BFC fluorescent substrate)
- Assay type: biochemical
- CONDITIONS_USED: Baculo. enzyme preparation, read-out: Kiapp (BFC, Baculo.)
For each of the compounds below, state its Ki.
Numbers only here, please. The scale is nM.

Query block: Please report the recorded Ki for CCOc1cncc(NS(=O)(=O)c2ccccc2C(=O)NCc2ccc(Cl)c(Cl)c2)c1 .
Result block: 4.5

Query block: Input CCOc1ccncc1NS(=O)(=O)c1ccccc1C(=O)NC(C)C1CC1 (stereo not drawn)
Result block: 352

Query block: Record: CCCN(CCOC)C(=O)c1ccccc1S(=O)(=O)Nc1cncc(OC)c1
Result block: 50.3

Query block: And what about the compound CN(Cc1ccccc1)C(=O)c1ccccc1S(=O)(=O)N(C)c1cccnc1 ?
Result block: 181

Query block: Further, for O=C(NCc1ccccc1F)c1ccccc1S(=O)(=O)Nc1cccnc1 ?
Result block: 55.9

Query block: Repeat with COc1cncc(NS(=O)(=O)c2ccccc2C(=O)N(C)Cc2cccc(F)c2)c1
Result block: 52

Query block: Do the same for COc1ccncc1NS(=O)(=O)c1ccccc1C(=O)N1CCCCC1 please
Result block: 570

###

Please respond with reported Ki for every item in the list.
- TARGET_OR_SYSTEM: CYP3A4 (Homo sapiens, UniProt P08684)
- Sequence (P08684 whole entry): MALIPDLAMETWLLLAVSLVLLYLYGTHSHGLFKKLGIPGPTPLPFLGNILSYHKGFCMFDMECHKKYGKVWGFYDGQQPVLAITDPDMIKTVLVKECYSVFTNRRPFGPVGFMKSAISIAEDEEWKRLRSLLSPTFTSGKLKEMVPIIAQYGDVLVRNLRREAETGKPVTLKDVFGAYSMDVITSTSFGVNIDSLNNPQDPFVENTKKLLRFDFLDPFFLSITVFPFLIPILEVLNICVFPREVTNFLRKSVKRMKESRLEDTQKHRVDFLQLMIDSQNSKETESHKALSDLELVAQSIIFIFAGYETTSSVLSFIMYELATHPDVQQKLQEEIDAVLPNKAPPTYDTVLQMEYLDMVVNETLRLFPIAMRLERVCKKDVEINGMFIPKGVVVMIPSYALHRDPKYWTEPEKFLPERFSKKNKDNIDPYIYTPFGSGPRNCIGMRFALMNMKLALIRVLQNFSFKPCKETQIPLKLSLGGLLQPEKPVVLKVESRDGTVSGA
- ASSAY_PROTOCOL: Determination of compound Kiapp against recombinant CYP3A4 enzyme (BFC fluorescent substrate)
- Format: biochemical
- CONDITIONS_USED: Baculo. enzyme preparation, read-out: Kiapp (BFC, Baculo.)
Entry rule: numbers only, all in nM.

Query block: Name the reported Ki value associated with the compound COc1cncc(NS(=O)(=O)c2ccccc2C(=O)NCCc2ccc(C(F)(F)F)c(F)c2)c1
Result block: 69.7

Query block: Same question, COc1cncc(NS(=O)(=O)c2ccccc2C(=O)NCc2cccc(Cl)c2Cl)c1 this time
Result block: 17.1

Query block: Similarly, CC(C)(C)NC(=O)c1ccccc1S(=O)(=O)Nc1cccnc1 ?
Result block: 503

Query block: Next compound up: COc1cc(CNC(=O)c2ccccc2S(=O)(=O)Nc2cccnc2)cc(OC)c1
Result block: 680

###

- TARGET_OR_SYSTEM: UniProt:P08684
- ASSAY_PROTOCOL: Determination of compound Kiapp against recombinant CYP3A4 enzyme (BFC fluorescent substrate)
- Type: biochemical
- CONDITIONS_USED: Super. enzyme preparation, read-out: Kiapp (BFC, Super.)
ENDPOINT: pKi
In plain terms, pKi is the concentration in mol/L turned into minus its base-10 logarithm.

Query block: Please look up its pKi: COc1cncc(NS(=O)(=O)c2ccccc2C(=O)NCC(C)(C)C)c1
Result block: 7.22

Query block: // next record COc1cncc(NS(=O)(=O)c2ccccc2C(=O)NCc2ccc(F)c(C(F)(F)F)c2)c1
Result block: 8.46

Query block: Item: COc1cncc(NS(=O)(=O)c2ccccc2C(=O)NCc2ccccc2OC)c1
Result block: 8.01

Query block: Would you mind doing CN(c1cccnc1)S(=O)(=O)c1ccccc1C(=O)N1CCCC1 as well?
Result block: 6.32

Query block: Again, but for COc1cncc(NS(=O)(=O)c2ccccc2C(=O)NCc2ccc(F)cc2F)c1
Result block: 8.22

Query block: What do you get for CN(c1cccnc1)S(=O)(=O)c1ccccc1C(=O)N1CCOCC1 ?
Result block: 6.56

Query block: What about this molecule? CN(C)Cc1ccc(CNC(=O)c2ccccc2S(=O)(=O)Nc2cccnc2)cc1
Result block: 6.33

Query block: How about this molecule: COCCN(C(=O)c1ccccc1S(=O)(=O)Nc1cncc(OC)c1)C(C)C
Result block: 7.57

Query block: Param item: COc1cncc(NS(=O)(=O)c2ccc(OCCCN(C)C)cc2C(=O)N(C)C(C)C)c1
Result block: 6.71
